The measurements presented in this section are drawn from patent US12528802B2.

# STUDY_SYSTEM: glucosylceramide synthase (Homo sapiens)
# Construct: made in house; host or cells: Expi293F cells (transient expression, pcDNA3.3-TOPO vector); microsome fraction used as enzyme source
# Sequence (Q16739 whole entry): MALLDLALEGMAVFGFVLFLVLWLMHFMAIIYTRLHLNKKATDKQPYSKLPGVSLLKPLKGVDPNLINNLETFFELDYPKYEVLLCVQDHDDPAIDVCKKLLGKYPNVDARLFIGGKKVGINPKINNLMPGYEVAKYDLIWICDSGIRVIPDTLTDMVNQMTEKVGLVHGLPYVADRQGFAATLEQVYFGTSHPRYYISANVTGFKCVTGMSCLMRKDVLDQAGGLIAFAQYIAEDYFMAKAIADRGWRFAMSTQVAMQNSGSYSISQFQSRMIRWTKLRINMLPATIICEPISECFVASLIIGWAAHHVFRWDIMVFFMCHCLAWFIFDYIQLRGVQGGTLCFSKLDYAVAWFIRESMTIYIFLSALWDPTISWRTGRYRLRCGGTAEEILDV
# METHOD_NOTES: Glucosylceramide synthase (GCS) enzyme assay, microsome fraction, C8 glucosylceramide quantified by Rapidfire MS/MS
# Format: biochemical
# CONDITION: test compound 10 μM; 1.7 μM UDP-glucose, 3 μM C8 ceramide; room temperature 60 min; read-out: GCS enzyme inhibitory rate at 10 μM (%) (% of control)
METRIC: inhibition at 10 µM (%)

// solved cases for inhibition at 10 µM follow
- COMPOUND: "CC(C)(O)c1cc2c(c(-c3ccccc3OCC(F)F)n1)CN(c1ccc(F)cc1)C2=O"
  inhibition at 10 µM, %: 99
- COMPOUND: "O=C1c2ccnc(-c3ccccc3OCC(F)(F)F)c2CN1c1ccc(F)cc1"
  inhibition at 10 µM, %: 94

P. Cc1cc2c(c(-c3ccccc3OCC(F)(F)F)n1)CN(c1ccc(OCC(C)(C)O)nc1)C2=O
Q. COc1cnc(C)cc1-c1nccc2c1CN(c1ccc(F)cc1)C2=O
Higher inhibition at 10 µM between P and Q ? State your choice using its label. P

P. O=C1c2ccnc(-c3ccc(F)cc3OCC(F)(F)F)c2CN1c1ccc(OC2COC2)cc1
Q. O=C1c2ccnc(-c3ccc(F)cc3OCC(F)(F)F)c2CN1c1ccc(F)cc1
Between the entries labeled P and Q , whose measured inhibition at 10 µM is lower? State your choice using its label. Q

A. CC(C)(O)c1ccc(N2Cc3c(cc(C(C)(C)F)nc3-c3ccccc3OCC(F)(F)F)C2=O)cc1
B. CC(=O)N1CC(O)(c2ccc(N3Cc4c(ccnc4-c4ccccc4OCC(F)(F)F)C3=O)cc2)C1
Higher inhibition at 10 µM between A and B ? State your choice using its label. A
(A: 100%, B: 70%)
